Each recorded value in this set is attributed to paper PMC10287707.

- STUDY_TARGET: T1, TIA1 RRM2_3 (human, UniProt P31483-2 93-274)
- T1 sequence: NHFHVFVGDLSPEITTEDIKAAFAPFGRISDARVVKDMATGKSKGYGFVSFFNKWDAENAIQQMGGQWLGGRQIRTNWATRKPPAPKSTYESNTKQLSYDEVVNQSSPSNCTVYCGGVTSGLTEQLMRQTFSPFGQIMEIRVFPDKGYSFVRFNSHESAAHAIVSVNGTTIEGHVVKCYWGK
- PROTOCOL_TEXT: EMSA; EMSA: 10 mM sodium phosphate pH 6.5, 50 mM NaCl, 1 mM DTT, 1 U/ul SUPERase-In, room temperature 20 min, native 1.2% agarose; RNA annealed in 10 mM Tris-HCl pH 7.5, 100 mM KCl
- CONDITION: protein: recombinant; tags: His6-SUMO removed by SUMO protease; label: 5'-Cy3; hairpin, 5-nt loop
PARAMETER: pKd
Reminder that pKd is minus the log10 of a molar concentration.

### Prompt // pKd lookup, key: UUUCGAUCUCUUGUAGAUC (structured_RNA) [SL2]
### Response 5.61
